# Tested on: SNB-78 CNS
# assay-summary: NCI tumour cell line growth inhibition, 48 h
quantity-measured: TGI

>>> print(df.to_string())
                                    compound  recorded_measurement
 0  COC(=O)C1CCC2(C)[C@H](CCC3O[C@]32C)[C@@]1(C)CC(=O)c1ccoc1 (stereo partly specified)              > 100 µM
 1  Cc1nc(N)nn1C1OCC(O)C(O)C1O (stereo unspecified)              > 100 µM
 2          O=C1c2cccc(O)c2C(=O)c2cccc(O)c21              > 100 µM
 3  O=C(Nc1ccc(Cl)c(Cl)c1)C(=O)C(C(=O)c1ccccc1F)C1OC(=O)c2ccccc21 (stereo unspecified)               73.1 µM
 4        NCCc1ccc2oc3cc(=O)c4ccccc4c-3nc2c1               23.3 µM
 5  COc1nc(NC2OCC(OC(C)=O)C(OC(C)=O)C2OC(C)=O)c(-c2csc(N)n2)c(=O)n1C (stereo unspecified)              > 100 µM
 6                Cc1ccc(NC(=O)SCCC(=O)O)cc1              > 100 µM
 7  CCc1cccc(CC)c1NC(=O)C(C#N)C1=C(Cl)C(=O)c2ccccc2C1=O (stereo unspecified)               40.8 µM
 8  N#CC1(Cc2ccccc2[N+](=O)[O-])c2ccccc2C2C(N1C(=O)c1ccccc1)C2(Cl)Cl (stereo unspecified)              > 100 µM
 9  CCOP1(=O)C=CC(Cl)=C(C)C1 (stereo unspecified)               47.5 µM
10  CC12OC3(C)OC(=O)C(c4ccccc4)(O1)C3(C)O2 (stereo unspecified)              > 100 µM

====

# System: HCC-2998 colon
# assay-summary: NCI tumour cell line growth inhibition, 48 h; in the data active = GI50 below about 0.43 µM; inactive = the rest
Classes used: active, inactive

>>> print(df.to_string())
                                   compound          system  assigned_category
0       O=CN/N=C/c1ccc(Cl)c([N+](=O)[O-])c1  HCC-2998 colon             active
1  O=c1cc(NCC(O)CN2CCOCC2)n(Cc2ccccc2)c(=O)n1Cc1ccccc1 (centres undefined)  HCC-2998 colon           inactive
2  CCC(=O)OC1CCC2C3CCC(=O)OC3C(C)(CCC(=O)O)CC12C (centres undefined)  HCC-2998 colon           inactive
3  O=[N+]([O-])c1ccc2c(c1)C(=NO)c1cc([N+](=O)[O-])ccc1-2  HCC-2998 colon           inactive
4  Cc1cc(C2CC(O)C(CO)O2)c(Cl)cc1Cl (centres undefined)  HCC-2998 colon           inactive
5  CC(=O)OC1Oc2ccccc2-c2oc(=O)c(-c3ccc(F)cc3)cc21 (centres undefined)  HCC-2998 colon           inactive
6       OCc1ccc(N(Cc2ccc(F)cc2)CC2CC2)cc1Cl  HCC-2998 colon           inactive
7  CC(=N\O)/C(C)=N/O.CC(=N\O)/C(C)=N/O.CC(=N\O)/C(C)=N/O.CC(=N\O)/C(C)=N/O.[CH3-].[CH3-].[Co].[Co]  HCC-2998 colon           inactive
8  O=C(CCCCN1CCOCC1)Nc1ccc(Cn2nnc3c2C(=O)c2nnn(Cc4ccc(NC(=O)CCCCN5CCOCC5)cc4)c2C3=O)cc1  HCC-2998 colon             active
